# assay-system: T1, 3-pHis peptide (Biotin-AminocaproicAcid-A.G.A.G.H.A.G.A.G phosphorylated by phosphoramidate)
# T1 construct: His-peptide, phosphorylated on His5; the phosphoramidate reaction gives a mixture of non-phosphorylated, 1-pHis, 3-pHis and di-pHis peptide; also called Biotinylated ACLYana-3-pHis; ACLYana-pHis; source: synthetic peptide, phosphorylated with potassium phosphoramidate; not shown: biotin, N-terminal, kept
# T1 peptide: {Biotin-Ahx}-AGAG[3‑pHis]AGAG
# assay-explanation: BLI; Octet RED96e; biotinylated peptides captured on streptavidin biosensors at 20 nM; Fab in solution, 20-200 nM; 1x HBS-T, 1% BSA
attribute-measured: koff
Remember to follow the number with its unit.

// query koff value for entry hSC44.20.N32Y^L Fab (Fab, V domains shown) VH: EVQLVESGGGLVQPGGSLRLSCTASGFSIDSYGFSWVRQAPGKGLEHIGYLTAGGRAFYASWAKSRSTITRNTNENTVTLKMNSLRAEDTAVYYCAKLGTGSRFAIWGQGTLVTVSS VL: DIQMTQSPSSLSASVGDRVTITCRASQSVWRNKYVAWYQQKPGKAPKRLIYAIASLYSGVPSRFSGSGSGTDFTLTISSLQPEDFATYYCVGHYGSENDAYYAFGQGTKVEIK
0.00066 s⁻¹
